# assay name: inhibitors of hydroxyurea-induced Chk1 phosphorylation, primary screen, imaging, HeLa, phospho-Chk1 antibody, percent positive cells (AID 1186)
# run conditions: hydroxyurea-induced phospho-Chk1 immunofluorescence imaging, higher = more signal
metric name: z-score
Just the number, please, no unit attached.

Examples with answers:
COC(=O)C1=CC(CCCO)=CC(c2ccc(CN3CCCC3)cc2)N(Cc2sc3ccccc3c2Cl)C=C1C(=O)OC (centres undefined); -0.438
O=C1O[C@H](c2ccccc2)[C@H](c2ccccc2)N2[C@H]1[C@@H](C(=O)NC[C@H](O)c1ccccc1)[C@]1(C(=O)Nc3ccc(C#CCCO)cc31)[C@H]2c1ccccc1OCCO; 0.125
N#Cc1ccc(C(O)C2C=CC3C(=O)NC(=O)C3N2Nc2ccccn2)cc1 (centres undefined); -0.0275
COCCCNC(=O)[C@@]1(Sc2ccc(C)cc2)CC(=O)N(C2CCCCC2)[C@@H]1c1ccc(CO)cc1I; 0.46
CCCCN1CC=CC23O[C@@H]4/C=C\CCC(C)OC(=O)C4[C@H]2C(=O)N(C(C)CO)[C@@H]3C1=O (some centres undefined); 0.479
NCCCC[C@@H]1NC(=O)[C@H]2C[C@@H](C(=O)NCc3ccc(F)cc3)[C@@H](c3ccc(O)cc3)N2C1=O; -0.52
CC(C)C[C@@H]1NC(=O)[C@@H]2C[C@H](C(=O)O)[C@H](c3ccc(O)cc3)N2C1=O; 0.873
COc1cc2c(cc1O)C(c1ccc(CN3CCCC3)cc1)N(Cc1cccc(OC(F)(F)F)c1)CC2 (centres undefined); 0.0325

Bench note: what z-score did CC(C)C[C@@H]1NC(=O)[C@@H]2C[C@H](C(=O)NCCCC[N+](C)(C)C)[C@H](c3ccc(O)cc3)N2C1=O show? 0.757

Bench note: what z-score did CC(C)[Si](C#CCCCC#N)(O[C@H](c1ccccc1)c1cn([C@H](C)c2ccccc2)nn1)C(C)C show? -0.228

* * *

# measured target: Follistatin-related protein 3 (Homo sapiens)
# assay name: FSTL3 binders on small-molecule microarrays, primary screen, biochemical, small-molecule microarray, 635 nm fluorescence (AID 1105);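 also: score merges emission near 667 nm and signal to noise per printed spot across three slides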
# run conditions: FSTL3 binding, higher = more signal
# composite z-score >= 0.7 gives Condition met, anything below gives Condition not met

CCCC[C@H]1OB(O)C[C@H]2C1=C(COC)C[C@H]1C(=O)C=CC(=O)[C@H]12; Condition met
NC(=O)[C@@]1(CCS(=O)(=O)c2ccccc2)COC(c2ccc(OCCCO)cc2)=N1; Condition not met
CN(C)CCCC[C@@H]1NC(=O)[C@H]2C[C@@H](C(=O)NCc3ccc(F)cc3)[C@@H](c3ccc(O)cc3)N2C1=O; Condition not met
COc1cc(OC)c(C(O)C2C=CC3C(=O)N(c4ccccc4)C(=O)C3N2Nc2ccccc2F)cc1Br (stereo not given); Condition met
CN1C=C(C(=O)OCCS(C)(=O)=O)C(C(=O)OCCS(C)(=O)=O)=CC(CCCO)=CC1c1ccc(CN2CCCC2)cc1 (stereo not given); Condition met

Is it the case that [N-]=[N+]=NCc1ccccc1[C@@H]1OC(c2ccc(OCCCO)cc2)=N[C@]1(Cc1ccccc1)C(=O)NCc1ccccc1 has composite z-score reaching or exceeding 0.7? Condition not met

Is it the case that CCC(CC)C(O)C1C=CC2C(=O)N(C)C(=O)C2N1N1CCCCC1 (stereo not given) has composite z-score reaching or exceeding 0.7? Condition met

Is it the case that COCCOC(=O)N1C(=O)[C@@]2(c3ccccc31)[C@H](c1ccc(OCCO)cc1)N1[C@H](c3ccccc3)[C@H](c3ccccc3)OC(=O)[C@H]1[C@@H]2C(=O)N1CCN(c2ncccn2)CC1 has composite z-score reaching or exceeding 0.7? Condition met

* * *

# composite z-score per entry
# System: Chordin-like protein 2 (CHRDL2)
# assay name: CHRDL2 small-molecule binders, primary screen, biochemical, small-molecule microarray, 635 nm fluorescence (AID 1126);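 also: printed compound slides probed with Chrdl2 protein at 4 µg/mL for 1 h at 4 C; score merges 667 nm emission intensity with signal to noise over three replicate slides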
# run conditions: small-molecule microarray binding, fluorescence 635 nm; higher = more signal

CCOC(=O)C1=CCC(c2cc3ccccc3[nH]2)N(S(=O)(=O)c2ccccc2[N+](=O)[O-])C1 (stereo not drawn); 0.0846
CCCCC(O)C1C=CC2C(=O)NC(=O)C2N1Nc1ccc(Cl)cc1Cl (stereo not drawn); -0.452
CN(C)CCCNC(=O)[C@@H]1c2ccccc2C(=O)N(C2Cc3ccccc3C2)[C@H]1c1ccc(CO)cc1; -0.0701
O=C1C2C=CC(C(O)C(c3ccccc3)c3ccccc3)N(Nc3ccccc3)C2C(=O)N1c1ccccc1 (stereo not drawn); -0.236
COCCOC(=O)N1C(=O)[C@@]2(c3ccccc31)[C@H](c1ccc(OCCO)cc1)N1[C@H](c3ccccc3)[C@H](c3ccccc3)OC(=O)[C@H]1[C@@H]2C(=O)N1CCN(c2ncccn2)CC1; 0.756

Request body: readout composite z-score, system Chordin-like protein 2 (CHRDL2), query C=CC[C@]1(C(=O)NCCCOC)N=C(c2ccc(OCCCO)cc2)O[C@H]1c1ccccc1 . Return the value. -1.08

Request body: readout composite z-score, system Chordin-like protein 2 (CHRDL2), query [N-]=[N+]=NCc1ccccc1[C@@H]1OC(c2ccc(OCCCO)cc2)=N[C@]1(Cc1ccccc1)C(=O)NCc1ccccc1 . Return the value. -0.691

Request body: readout composite z-score, system Chordin-like protein 2 (CHRDL2), query NC(=O)[C@@]1(CCS(=O)(=O)c2ccccc2)COC(c2ccc(OCCCO)cc2)=N1 . Return the value. -0.536

* * *

# measured target: Dihydroorotate dehydrogenase (quinone), mitochondrial (Plasmodium falciparum (isolate 3D7))
# assay name: PfDHODH enzyme inhibitors, primary screen, biochemical, C-terminal His tag, absorbance 600 nm (AID 1175);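 also: recombinant parasite enzyme with a five histidine tag at its C terminus; test concentration not given here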
# run conditions: DCIP absorbance 600 nm, called active from +8 up or from −8 down
Calls of active or inactive are those of the source.
Please reply with one of these outcomes: active, inactive

Would you please look over these solved cases?
COC(=O)[C@@]1(Cc2ccccc2)[C@@H]2[C@@H](CC(=O)[C@H]2CC(=O)C(=O)N(C)C)CN1C(=O)c1ccccc1; inactive
COCCCN1C(=O)[C@@]2(Cc3ccccc31)c1ccccc1C(=O)N(Cc1ccccc1OC)[C@H]2c1ccc(CO)cc1; inactive
C=CCC(OC(C)=O)[C@@H]1[C@@H](N(Cc2ccc(-c3ccccc3)cc2)C(=O)c2ccc(-c3ccccc3)cc2)c2cc(OCCCO)ccc2N1C(=O)c1ccc2ccccc2n1 (stereo partly drawn); inactive
O=C1OCCC/C=C\[C@H]2OC34C=CCN(Cc5ccccc5)C(=O)[C@H]3N(CCCCCO)C(=O)[C@@H]4C12 (stereo partly drawn); inactive

What was the test verdict on COCCOC(=O)N1C(=O)[C@@]2(c3cc(C#CCNC(N)=O)ccc31)[C@H](C(=O)NC[C@H](O)c1ccccc1)[C@H]1C(=O)O[C@H](c3ccccc3)[C@H](c3ccccc3)N1[C@@H]2c1ccc(OCCO)cc1 ? inactive

What was the test verdict on Cc1ccc(S(=O)(=O)N2[C@@H](c3ccccc3)C(C(=O)O)=CC[C@H]2c2ccc(C#N)cc2)cc1 ? inactive

What was the test verdict on C#CCN(C/C=C/c1ccccc1)[C@H](CO[Si](C)(C)C(C)(C)C)c1ccccc1 ? inactive

What was the test verdict on CCCC=C(CCC)[C@@H](NC(=O)c1ccccc1)c1ccc(C(=O)OC)cc1 ? inactive

What was the test verdict on COc1ccc([Si](C)(C)[C@@H]2[C@@H](CC(=O)N(CCO)Cc3ccccc3)O[C@]3(C(=O)N(Cc4ccc(N5CCC5=O)cc4)c4ccccc43)[C@H]2C)cc1 ? inactive

What was the test verdict on CN(C)CCCNC(=O)[C@@H]1c2ccccc2C(=O)N(C2Cc3ccccc3C2)[C@H]1c1ccc(CO)cc1 ? inactive

What was the test verdict on COCC(=C=CC[C@@H](O)c1cccc(OCCO)c1)C[C@@H](O)COCc1ccccc1 ? inactive

What was the test verdict on C=C(COC)C(=O)CC[C@@H](OC(=O)c1cccnc1)c1cccc(OCCO)c1 ? inactive

What was the test verdict on CO[C@H]1O[C@H](CO)[C@@H](OC(=O)Nc2ccccc2)[C@@H]2OC(=O)[C@H](Cc3ccccc3)C/C=C/C[C@@H](Cc3ccccc3)C(=O)O[C@@H]12 ? inactive

* * *

# assay name: small-molecule microarray binders of probe aCHRDL2, primary screen, biochemical, biotinylated probe, 635/667 nm fluorescence (AID 1100)
# run conditions: higher = more signal
# composite z-score per entry

CC(=O)c1ccc(C(O)C2C=CC3C(=O)N(C)C(=O)C3N2NC(=O)OC(C)(C)C)cc1 (configuration not stated); 0.948
CCC[C@@H]1C=C(C(=O)OCC)[C@H](c2ccccc2)N1S(=O)(=O)c1ccc(C)cc1; 1.02
CN(C)C(=O)[C@]1(Cc2ccccc2)N=C(c2ccc(OCCCO)cc2)O[C@@H]1c1ccccc1; 0.624
COC(=O)[C@@]1(Cc2ccc(F)cc2)[C@H]2c3cc(C(=O)N4CCCC4)n(CCO)c3C[C@H]2CN1C(=O)c1ccccc1; 0.977

Bench note: what composite z-score did COC(=O)[C@@]1(CCC(=O)OC(C)(C)C)N=C(c2ccc(OCCCO)cc2)O[C@H]1c1ccccc1CN=[N+]=[N-] show? 0.87

Bench note: what composite z-score did NCCCC[C@@H]1NC(=O)[C@H]2C[C@@H](C(=O)NCc3ccc(F)cc3)[C@@H](c3cccc(OCCO)c3)N2C1=O show? -0.142

Bench note: what composite z-score did COc1ccc([Si](C)(C)[C@@H]2[C@@H](CC(=O)N(CCO)Cc3ccccc3)O[C@]3(C(=O)N(Cc4ccc(N5CCC5=O)cc4)c4ccccc43)[C@H]2C)cc1 show? 0.618
